target: IL-13 (human IL-13, preparation not specified) (human, UniProt P35225 35-146, limits assumed); assay: cell-based or functional assay
Sequence (P35225 35-146 limits assumed): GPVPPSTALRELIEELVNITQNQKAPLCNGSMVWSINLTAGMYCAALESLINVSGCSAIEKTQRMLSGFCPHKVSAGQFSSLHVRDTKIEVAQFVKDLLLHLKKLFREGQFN
parameter: IC50, Eotaxin-1 assay, n = 2 (nM)
Just the number in nM, nothing appended.

Suppose we examine the binder antibody 693 (antibody, V domains shown, also called sc693) VH: QVQLQESGPGLVKPSETLSLTCSVSGGSISSYYWSWIRQPAGKGLEWIGRIYMTGRTNYNSSLKSRVTMSIDTSKNQLSLKLSFMTAADTAVYYCARESGSSYSYDYWGQGTLVTVSS VL: SYVLTQPPSVSVAPGQTARITCGGNNIGSKGVHWYQQKPGQAPVLVVYDDSDRPSGIPERFSGSNSGNTATLTISRVEAGDEADYYCQVWVSSSDHHVVFGGGTKLTVV ; what IC50, Eotaxin-1 assay, n = 2 value has been reported?
0.069

Suppose we examine the binder antibody 353 (antibody, V domains shown) VH: QVQLQESGPGLVKPSETLSLTCTVSGGSISTYYWSWIRQPPGKGLEWIGYIYYSGSTNYNPSLKSRVTISVDTSKNQFSLKLSSVTAADTAVYYCARDGGHYWDDAFDIWGQGTMVTVSS VL: DIQMTQSPSSLSASVGDRVTITCRASQGIRNDLDWYQQKPGKAPKRLIYDASSLQSGVPSRFSGSGSGTEFTLTISSLQPEDFATYYCLQHDSYPFTFGPGTKVDIK ; what IC50, Eotaxin-1 assay, n = 2 value has been reported?
0.123

Suppose we examine the binder antibody 623 (antibody, V domains shown) VH: EVQLVESGGGLVKPGGSLRLSCAASGFTFSNAWMSWVRQAPGKGLEWVGRIRSEIDGGTTNYAAPVKGRFTISRDDSKNTLYLQMNSLKTEDTAVYYCATDQVGAYYGDYYGMDVWGQGTLVTVSS VL: SYELTQPPSVSVSPGQTARITCSGDALPEKYAYWYQQKSGQAPVLVIYEDSKRPSGIPERFSGSSSGTMATLTISGAQVEDEADYYCHSTDSSGNHGVFGGGTKLTVL ; what IC50, Eotaxin-1 assay, n = 2 value has been reported?
0.04
